Record form. Attribute: inhibition. Fill in for each entry.
Molecular target: Adenosine receptor A2b (Homo sapiens) (UniProt P29275)
Sequence (whole entry): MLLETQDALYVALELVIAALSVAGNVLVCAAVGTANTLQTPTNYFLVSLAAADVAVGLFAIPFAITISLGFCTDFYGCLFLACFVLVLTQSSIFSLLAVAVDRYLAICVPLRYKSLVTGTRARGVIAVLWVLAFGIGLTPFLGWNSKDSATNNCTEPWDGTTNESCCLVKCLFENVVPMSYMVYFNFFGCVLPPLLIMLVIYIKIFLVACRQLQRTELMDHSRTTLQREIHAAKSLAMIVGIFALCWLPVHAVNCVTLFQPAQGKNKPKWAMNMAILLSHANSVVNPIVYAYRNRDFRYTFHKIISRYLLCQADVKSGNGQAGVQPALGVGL
Assay: Displacement of [3H]DPCPX from human adenosine A2B receptor expressed in HEK293 cell membranes at 1 uM incubated for 30 mins by scintillation counting method
Conditions: Cell membrane
Give bare numbers, in %.

Some compounds with recorded inhibition:
compound="CC1=C(C(=O)OC2CCCCC2)C(c2ccco2)NC(=O)N1 (racemic)" measurednumber=1
compound="CC1=C(C(=O)SC(C)C)C(c2ccsc2)NC(=O)N1 (racemic)" measurednumber=14
compound="CC1=C(C(=O)OC2CCCCC2)C(c2cccs2)NC(=O)N1 (racemic)" measurednumber=3

Please report inhibition for every entry that follows.
1. CCOP(=O)(OCC)C1=C(C)NC(=O)NC1c1ccco1 (racemic)
2. CCCOC(=O)C1=C(C)NC(=S)NC1c1ccsc1 (racemic)
3. CC1=C(C(=O)OC2CCCC2)C(c2cccs2)NC(=O)N1 (racemic)

[2, 26, 1]

----------
biological target: Adenosine receptor A2b (Homo sapiens) (UniProt P29275); experiment: Displacement of [3H]DPCPX from human adenosine A2B receptor expressed in HEK293 cell membranes at 1 uM incubated for 30 mins by scintillation counting method; settings: Cell membrane
Threshold check on inhibition: at or above 7% gives T, strictly below gives F.

Tell me whether inhibition is at least 7% here: CCC(C)OC(=O)C1=C(C)NC(=O)NC1c1ccsc1 (racemic) T

Exam item: decide whether the reported inhibition for CC1=C(C(=O)C2CC2)C(c2ccsc2)NC(=O)N1 (racemic) is at least 7%. F

Does the reported inhibition for CC1=C(C(=O)OCC(C)C)C(c2ccoc2)NC(=S)N1 (racemic) fall at or above the 7% mark? F

Could you please find out whether CC1=C(C(=O)OC(C)C)C(c2ccoc2)NC(=O)N1C (racemic) has inhibition that meets 7% or exceeds it? T

Kindly determine if inhibition recorded for CC1=C(C(=O)OCC(C)C)C(c2ccoc2)NC(=O)N1C (racemic) is above or exactly 7%. F

Has CCCOC(=O)C1=C(C)N(C)C(=O)NC1c1ccsc1 (racemic) a recorded inhibition greater than or equal to 7%? F

Does inhibition meet or surpass 7% for CCNC(=O)C1=C(C)NC(=O)NC1c1ccco1 (racemic) ? F

----------
target: Adenosine receptor A1 (Homo sapiens) (UniProt P30542); assay: Displacement of [3H]DPCPX from human adenosine A1 receptor expressed in CHO cell membranes at 1 uM incubated for 60 mins by scintillation counting method; conditions: Cell membrane
Sequence (P30542 whole entry): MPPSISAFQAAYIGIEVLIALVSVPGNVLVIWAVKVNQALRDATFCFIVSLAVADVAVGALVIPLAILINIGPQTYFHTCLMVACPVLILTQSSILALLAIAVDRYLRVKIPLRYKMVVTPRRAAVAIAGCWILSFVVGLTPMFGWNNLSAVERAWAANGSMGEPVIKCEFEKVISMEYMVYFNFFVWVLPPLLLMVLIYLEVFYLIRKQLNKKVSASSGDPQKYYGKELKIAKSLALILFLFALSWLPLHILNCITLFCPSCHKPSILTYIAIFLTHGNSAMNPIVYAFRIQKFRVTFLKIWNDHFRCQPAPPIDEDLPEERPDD
measure: inhibition (%)
Answers are plain numbers, in %.

Sample answers from the record:
molecule="CC1=C(C(=O)NC(C)C)C(c2cccs2)NC(=O)N1 (racemic)" measurednumber=2
molecule="CC1=C(C(=O)C2CC2)C(c2ccsc2)NC(=O)N1 (racemic)" measurednumber=2
molecule="CC1=C(C(=O)C2CC2)C(c2cccs2)NC(=O)N1 (racemic)" measurednumber=1
molecule="CC1=C(C(=O)OCC2CCC2)C(c2ccsc2)NC(=O)N1 (racemic)" measurednumber=48
molecule="CC1=C(C(=O)OCc2ccccc2)C(c2ccco2)NC(=O)N1 (racemic)" measurednumber=36

For CCOC(=O)C1=C(C)N(C)C(=O)NC1c1ccsc1 (racemic) the molecule record lists inhibition as 32

----------
molecular target: Adenosine receptor A3 (Homo sapiens); test: Displacement of [3H]NECA from adenosine A3 receptor expressed in human HeLa cell membranes at 1 uM incubated for 180 mins by scintillation counting method; settings: Cell membrane
Please note: T applies when inhibition is 3% or greater, and F applies otherwise.

Record excerpt, results attached:
compound="CC1=C(C(=O)OC(C)(C)C)C(c2cccs2)NC(=S)N1 (racemic)" group=T
compound="CCN(CC)C(=O)C1=C(C)NC(=O)NC1c1ccsc1 (racemic)" group=T

In plain terms: is recorded inhibition at least 3% for CCCOC(=O)C1=C(C)NC(=O)NC1c1ccsc1 (racemic) ? T

Does the reported inhibition for CC1=C(C(=O)OC(C)(C)C)C(c2ccsc2)NC(=O)N1 (racemic) fall at or above the 3% mark? F

Is inhibition at least 3%? Consider CC1=C(C(=O)OCc2ccccc2)C(c2ccoc2)NC(=S)N1 (racemic) T

----------
What inhibition was measured for each of the following?
target: Adenosine receptor A2a (Homo sapiens) (UniProt P29274); experiment: Displacement of [3H]ZM2421385 from adenosine A2A receptor expressed in human HeLa cell membranes at 1 uM incubated for 30 mins by scintillation counting method; details: Cell membrane
Sequence (P29274 whole entry): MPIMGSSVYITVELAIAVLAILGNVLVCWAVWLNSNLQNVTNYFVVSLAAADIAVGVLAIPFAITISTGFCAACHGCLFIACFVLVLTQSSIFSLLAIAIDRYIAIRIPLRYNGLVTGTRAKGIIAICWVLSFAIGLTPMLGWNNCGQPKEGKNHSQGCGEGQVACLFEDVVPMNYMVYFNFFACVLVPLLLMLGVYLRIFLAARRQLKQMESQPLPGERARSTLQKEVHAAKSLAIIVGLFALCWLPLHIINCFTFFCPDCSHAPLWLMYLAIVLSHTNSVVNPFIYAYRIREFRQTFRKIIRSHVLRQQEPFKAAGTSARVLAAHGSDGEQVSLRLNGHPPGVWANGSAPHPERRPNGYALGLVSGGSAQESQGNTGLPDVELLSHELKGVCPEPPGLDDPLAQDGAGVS
Kindly write the number and append the unit.

State recorded inhibition for all listed compounds.
1. CC1=C(C(=O)OCc2ccccc2)C(c2cccs2)NC(=O)N1 (racemic)
2. CCNC(=O)C1=C(C)NC(=O)NC1c1ccco1 (racemic)

1. 30%
2. 1%

So the reported inhibition for CCSC(=O)C1=C(C)NC(=O)NC1c1ccco1 (racemic) , on Adenosine receptor A2a (Homo sapiens) (UniProt P29274), turned out to be 2%

----------
molecular target: UniProt:P29275; assay: Displacement of [3H]DPCPX from human adenosine A2B receptor expressed in HEK293 cell membranes at 1 uM incubated for 30 mins by scintillation counting method; settings: Cell membrane, filed as antagonist
Exercise: for every item that follows, state its recorded inhibition.
Answers are plain numbers, in %.

Consider the reported inhibition for these compounds:
compound="CC1=C(C(=O)CC(C)C)C(c2cccs2)NC(=O)N1 (racemic)" measure=inhibition measurednumber=43
compound="COC(=O)C1=C(C)NC(=O)NC1c1ccoc1 (racemic)" measure=inhibition measurednumber=42
compound="CC1=C(C(=O)OCc2ccccc2)C(c2ccco2)NC(=O)N1C (racemic)" measure=inhibition measurednumber=41

// batch mode: one inhibition value per listed entry
1. CC1=C(c2ncc(C)o2)C(c2cccs2)NC(=O)N1 (racemic)
2. CCCOC(=O)C1=C(C)NC(=S)NC1c1ccco1 (racemic)

45
46

Please give inhibition for each item listed below.
1. CC1=C(C(=O)OCc2ccccc2)C(c2ccco2)NC(=S)N1 (racemic)
2. CC1=C(C(=O)OCc2ccccc2)C(c2ccsc2)NC(=O)N1 (racemic)

[41, 44]

----------
molecular target: UniProt P29274; test: Displacement of [3H]ZM2421385 from adenosine A2A receptor expressed in human HeLa cell membranes at 1 uM incubated for 30 mins by scintillation counting method; details: Cell membrane
measure: inhibition (%)
Answers are plain numbers, in %.

Worked examples follow.
compound="CCCOC(=O)C1=C(C)NC(=S)NC1c1ccco1 (racemic)" measurednumber=2
compound="CC1=C(C(=O)C2CC2)C(c2ccco2)NC(=O)N1 (racemic)" measurednumber=2
compound="CCC(C)OC(=O)C1=C(C)NC(=O)NC1c1cccs1 (racemic)" measurednumber=2

Hey, can you go through the list below and give me inhibition for every item?
1. CCC(C)OC(=O)C1=C(C)NC(=O)NC1c1ccsc1 (racemic)
2. CCOC(=O)C1=C(C)NC(=O)N[C@H]1c1ccsc1
3. CC1=C(C(=O)OCC2CCC2)C(c2ccoc2)NC(=O)N1 (racemic)

1
21
25

----------
biological target: Adenosine receptor A1 (Homo sapiens) (UniProt P30542); assay: Displacement of [3H]DPCPX from human adenosine A1 receptor expressed in CHO cell membranes at 1 uM incubated for 60 mins by scintillation counting method; conditions: Cell membrane
Kindly return fulfilled if reported inhibition is no lower than 3%; return not fulfilled if it is lower.

Some solved entries appear below for comparison.
compound="CC1=C(C(=O)CC(C)C)C(c2cccs2)NC(=O)N1 (racemic)" group=fulfilled
compound="CC1=C(C(=O)OCC(C)C)C(c2ccoc2)NC(=O)N1C (racemic)" group=fulfilled
compound="CC1=C(C(=O)C2CC2)C(c2ccco2)NC(=O)N1 (racemic)" group="not fulfilled"

API: above_or_equal(metric=inhibition, cutoff=3%) for item CC1=C(C(=O)C2CC2)C(c2ccoc2)NC(=O)N1 (racemic) not fulfilled

Record CC1=C(c2ncc(C)o2)C(c2ccco2)NC(=O)N1 (racemic) ; criterion: inhibition no lower than 3%. Met? fulfilled

Kindly determine if inhibition recorded for CC1=C(C(=O)OC(C)(C)C)C(c2cccs2)NC(=O)N1C (racemic) is above or exactly 3%. fulfilled

Does the compound CCCOC(=O)C1=C(C)N(C)C(=O)NC1c1cccs1 (racemic) have recorded inhibition that is 3% or more? fulfilled

Textbook exercise: given the entry CC1=C(C(=O)OC(C)(C)C)C(c2ccsc2)NC(=O)N1 (racemic) , state whether its inhibition is greater than or equal to 3%. fulfilled

Origin of values: ChEMBL document CHEMBL4765483
